All figures here come from patent US20070203114A1.

List of melting point values.
experimental readout: melting point

molecule | measured result
CCOC(=O)c1cn2c(C)c(C)nc2c2c1CCC(c1ccccc1)C2 (stereo not shown) [Example 1] | 165 to 167 °C
Cc1nc2c3c(c(CO)cn2c1C)CCC(c1ccccc1)C3 (stereo not shown) [Example 10] | 290 to 292 °C
Cc1nc2c3c(c(C(=O)O)cn2c1C)CCC(c1ccccc1)C3 (stereo not shown) [Example 2] | 343 to 345 °C (dec.)
CNC(=O)c1cn2c(C)c(C)nc2c2c1CCC(c1ccccc1)C2 (stereo not shown) [Example 8] | 266 to 268 °C
